Listed sequences paired with reported Binding Score
- target: MHC-II DRB1*03:01 (Homo sapiens, UniProt P01903+P01911, A100K/A102G/A103R/A169T/F55Y/I96L/K41T/L162R/M171V/P40S/Q125H/Q178H/Q39Y/R42S/S66N/T106N/T262R/W38E/Y61H)
- Sequence (P01903 26-254 limits assumed, other chains not shown): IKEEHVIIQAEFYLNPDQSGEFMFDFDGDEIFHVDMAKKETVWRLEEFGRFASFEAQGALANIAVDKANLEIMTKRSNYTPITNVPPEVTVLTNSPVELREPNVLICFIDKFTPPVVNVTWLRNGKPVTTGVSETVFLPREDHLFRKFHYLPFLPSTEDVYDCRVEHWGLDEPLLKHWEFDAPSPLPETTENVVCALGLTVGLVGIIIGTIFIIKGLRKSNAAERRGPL
- experiment: Cell-free REVEAL class II binding assay
- studyConditions: signal of test peptide as percentage of allele-specific positive control peptide, fluorescence, conformation-specific monoclonal antibody
assayEndpoint: Binding Score (%)

> print(dat)
                                biosequence  numericreadout
1  KTDPWFAHRTPMPKI [synthetic wild type FVIII 15 mer peptide, region of ns-SNP R776G]             0.0
2  DIEKTDPWFAHRTPM [synthetic wild type FVIII 15 mer peptide, region of ns-SNP R776G]             0.0
3  TVEDGPTKSDPRCLT [synthetic wild type FVIII 15 mer peptide]             0.2
4  GITDVRPLYSRRLPK [synthetic wild type FVIII 15 mer peptide, region of ns-SNP R484H]            10.8
5  PQVNNPKEWLQVDFQ [synthetic wild type FVIII 15 mer peptide]             0.0
6  PWFAHRTPMPKIQNV [synthetic wild type FVIII 15 mer peptide, region of ns-SNP R776G]             0.1
7  QKTMKVTGVTTQGVK [synthetic wild type FVIII 15 mer peptide, region of ns-SNP M2238V]             0.0
8  SYWKASEGAEYDDQT [synthetic wild type FVIII 15 mer peptide]             0.0

* * *

Listed sequences paired with reported Binding Score
- target: MHC-II DRB1*04:01 (Homo sapiens, UniProt P01903+P01911, A100K/A169T/F76Y/I96L/K127E/L162R/M171V/N62H/P40V/Q125Y/R42H/S133A/S149N/S66Y/V115G/V209L/W38E)
- experiment: Cell-free REVEAL class II binding assay
- studyConditions: signal of test peptide as percentage of allele-specific positive control peptide, fluorescence, conformation-specific monoclonal antibody
- Source text: We used a proprietary high throughput, REVEAL binding assay (ProImmune, www.proimmune.com) to estimate the binding of individual test peptides to the following MHC-II variants: DRB1*03:01, DRB1*04:01, DRB1*07:01, DRB1*11:01, DRB1*15:01 and DRB1*15:03 [28]. […] The peptide-MHC-II complex is detected by an increase in a fluorescence signal due to the binding of a specific monoclonal antibody. […]
assayEndpoint: Binding Score

> print(dat)
                                biosequence  result
1  RQNVEGSYDGAYAPV [synthetic wild type FVIII 15 mer peptide, region of ns-SNP D1241E]    0.0%
2  YISQFIIMYSLDGKK [synthetic wild type FVIII 15 mer peptide]   44.5%
3  DIEKTDPWFAHRTPM [synthetic wild type FVIII 15 mer peptide, region of ns-SNP R776G]    7.6%
4  ASEGAEYDDQTSQRE [synthetic wild type FVIII 15 mer peptide]    0.0%
5  AWRPQVNNPKEWLQV [synthetic wild type FVIII 15 mer peptide]   17.7%
6  RSNAWRPQVNNPKEW [synthetic wild type FVIII 15 mer peptide]   18.2%
7  SYDGAYAPVLQDFRS [synthetic wild type FVIII 15 mer peptide, region of ns-SNP D1241E]    0.4%
8  GPTKSDPRCLTRYYS [synthetic wild type FVIII 15 mer peptide]    0.5%

* * *

- target: MHC-II DRB1*04:01 (Homo sapiens, UniProt P01903+P01911, A100K/A169T/F76Y/I96L/K127E/L162R/M171V/N62H/P40V/Q125Y/R42H/S133A/S149N/S66Y/V115G/V209L/W38E)
- experiment: Cell-free REVEAL class II stability assay
- studyConditions: half-life of peptide-MHC-II complex (h, capped at 120) x Binding Score / 100, conformational ELISA
Listed sequences paired with reported Stability Index
assayEndpoint: Stability Index

> print(dat)
                                biosequence  numericreadout
1  TRYLRIHPQSWVHQI [synthetic wild type FVIII 15 mer peptide]             0.9
2  YNIYPHGITDVRPLY [synthetic wild type FVIII 15 mer peptide, region of ns-SNP R484H]             0.2
3  SLHAVGVSYWKASEG [synthetic wild type FVIII 15 mer peptide]             0.1
4  ASEGAEYDDQTSQRE [synthetic wild type FVIII 15 mer peptide]             0.0
5  YTFKHKMVYEDTLTL [synthetic wild type FVIII 15 mer peptide]             0.5

* * *

- target: MHC-II DRB1*04:01 (Homo sapiens, UniProt P01903+P01911, A100K/A169T/F76Y/I96L/K127E/L162R/M171V/N62H/P40V/Q125Y/R42H/S133A/S149N/S66Y/V115G/V209L/W38E)
- experiment: Cell-free REVEAL class II stability assay
- studyConditions: half-life of peptide-MHC-II complex (h, capped at 120) x Binding Score / 100, conformational ELISA
Listed sequences paired with reported Stability Index
assayEndpoint: Stability Index

> print(dat)
                                biosequence  numericreadout
1  PENDIEKTDPWFAHR [synthetic wild type FVIII 15 mer peptide, region of ns-SNP R776G]             0.1
2  RQNVEGSYDGAYAPV [synthetic wild type FVIII 15 mer peptide, region of ns-SNP D1241E]             0.0
3  KTDPWFAHRTPMPKI [synthetic wild type FVIII 15 mer peptide, region of ns-SNP R776G]             0.5
4  YISQFIIMYSLDGKK [synthetic wild type FVIII 15 mer peptide]            30.9
5  DIEKTDPWFAHRTPM [synthetic wild type FVIII 15 mer peptide, region of ns-SNP R776G]             0.4
6  IARYIRLHPTHYSIR [synthetic wild type FVIII 15 mer peptide]            38.8
7  RIHPQSWVHQIALRM [synthetic wild type FVIII 15 mer peptide]            12.6
8  AWRPQVNNPKEWLQV [synthetic wild type FVIII 15 mer peptide]            10.2

* * *

Listed sequences paired with reported Stability Index
- target: MHC-II DRB1*11:01 (Homo sapiens, UniProt P01903+P01911, A100R/A169T/A87E/I96F/K41T/L162R/M171V/P40S/Q125H/Q178H/Q39Y/Q99D/R42S/S66Y/T262R/V115G/W38E)
- Sequence (P01903 26-254 limits assumed, other chains not shown): as above
- experiment: Cell-free REVEAL class II stability assay
- studyConditions: half-life of peptide-MHC-II complex (h, capped at 120) x Binding Score / 100, conformational ELISA
assayEndpoint: Stability Index

> print(dat)
                                 biosequence  result
 1  AHRTPMPKIQNVSSS [synthetic wild type FVIII 15 mer peptide, region of ns-SNP R776G]     0.0
 2  YISQFIIMYSLDGKK [synthetic wild type FVIII 15 mer peptide]    33.1
 3  QKFSSLYISQFIIMY [synthetic wild type FVIII 15 mer peptide]     0.0
 4  SLHAVGVSYWKASEG [synthetic wild type FVIII 15 mer peptide]     0.0
 5  TLTLFPFSGETVFMS [synthetic wild type FVIII 15 mer peptide]     0.0
 6  AVGVSYWKASEGAEY [synthetic wild type FVIII 15 mer peptide]     0.0
 7  MKVTGVTTQGVKSLL [synthetic wild type FVIII 15 mer peptide, region of ns-SNP M2238V]     0.0
 8  PQVNNPKEWLQVDFQ [synthetic wild type FVIII 15 mer peptide]     0.0
 9  IARYIRLHPTHYSIR [synthetic wild type FVIII 15 mer peptide]    36.2
10  FSSLYISQFIIMYSL [synthetic wild type FVIII 15 mer peptide]     0.0
11  PPLLTRYLRIHPQSW [synthetic wild type FVIII 15 mer peptide]     5.9
12  YTFKHKMVYEDTLTL [synthetic wild type FVIII 15 mer peptide]    13.7
13  SQFIIMYSLDGKKWQ [synthetic wild type FVIII 15 mer peptide]    27.9
14  TVEDGPTKSDPRCLT [synthetic wild type FVIII 15 mer peptide]     0.0
15  DIEKTDPWFAHRTPM [synthetic wild type FVIII 15 mer peptide, region of ns-SNP R776G]     0.2
16  DGAYAPVLQDFRSLN [synthetic wild type FVIII 15 mer peptide, region of ns-SNP D1241E]     0.0
17  SRPYNIYPHGITDVR [synthetic wild type FVIII 15 mer peptide, region of ns-SNP R484H]     0.4
18  QKTMKVTGVTTQGVK [synthetic wild type FVIII 15 mer peptide, region of ns-SNP M2238V]     0.0
19  HKMVYEDTLTLFPFS [synthetic wild type FVIII 15 mer peptide]     0.2
